system: RXF 393 renal; test: NCI tumour cell line growth inhibition, 48 h
OUTCOME MEASURE: GI50

# query: GI50 | item "CCCCON(OC(=O)c1ccc2ccc3cccc4ccc1c2c34)C(C)=O" | system: RXF 393 renal
19700 nM

Request: GI50, test system RXF 393 renal, entry "C[C@H](O)C(=O)N1CCC(CCn2c(Sc3cc4c(cc3Br)OCO4)nc3c(N)ncnc32)CC1"
2570 nM

Please state recorded GI50 (tested on RXF 393 renal) of CC1=C(C(=O)Nc2ccc(F)c(Cl)c2)C(c2cccc(O)c2)NC(=O)N1 (stereo not drawn)
> 100000 nM

GI50 of "Br[C](Br)(Br)[Hg][c]1ccccc1" on RXF 393 renal?
8550 nM

Tell me reported GI50 for "O=S(=O)(Nc1cc(Sc2cccc3cccnc23)c(O)c2ccccc12)c1ccccc1" , tested with RXF 393 renal.
2400 nM

Observed GI50 on RXF 393 renal for "COc1ccc(CCN2COc3c([C@@H](C)CCC=C(C)C)ccc(C)c3C2)cc1OC" , please.
1730 nM

// fetch RXF 393 renal GI50 for "CCn1c(SCc2ccc(C)cc2)nnc1-c1nn(-c2ccc(Cl)cc2Cl)c(-c2ccc(Cl)cc2)c1C"
2690 nM

Form field: GI50 recorded for "COc1ccc(/C=C/C(=O)C(CC2CCC2)C(=O)/C=C/c2ccc(OC)c(OC)c2)cc1OC" with RXF 393 renal (enter value)
1850 nM
